# ASSAY_OVERVIEW: Apparent Permeability across apical to basolateral side in human Caco2 cells at 1 to 10 uM measured at 30 to 90 mins by LC/MS analysis
# Type: ADME, cell-based
# MEASUREMENT_SETUP: Caco-2
So basically: is Papp A→B at up to 10 µM under 0.5 ×10⁻⁶ cm/s? Then true (1). Not under? Then false (0).

Completed entries (count: 5):
CCOC(=O)c1cc(C#N)c(N2CCN(C(=O)NS(=O)(=O)Cc3ccccc3)CC2)nc1C = true (1)
CCOC(=O)c1cc(C#N)c(N2CCC(NC(=O)NS(=O)(=O)c3ccc(Cl)cc3)CC2)nc1C = false (0)
CC(C)CCOC(=O)c1cnc(N2CCN(C(=O)NS(=O)(=O)c3ccc(Cl)s3)CC2)c(Cl)c1 = true (1)
CCOC(=O)c1cc(C#N)c(N2CCN(C(=O)NS(=O)(=O)c3ccc(Cl)s3)CC2C)nc1C (racemic) = true (1)
CCOC(=O)c1cc(C#N)c(N2CCN(C(=O)NS(=O)(=O)c3ccc(Cl)cc3)CC2)nc1C(F)(F)F = true (1)

-- ask Would you kindly verify if Papp A→B at up to 10 µM of CCOC(=O)c1cc(C#N)c(N2CCC(NC(=O)NS(=O)(=O)Cc3ccccc3)CC2)nc1C is strictly less than 0.5 ×10⁻⁶ cm/s?
-- reply false (0)

-- ask Lab note: Papp A→B at up to 10 µM threshold 0.5 ×10⁻⁶ cm/s. Does this molecule come in strictly under it? CCOC(=O)c1cnc(N2CCN(C(=O)NS(=O)(=O)c3ccc(Cl)s3)CC2)c(Cl)c1
-- reply true (1)

-- ask Please check: Papp A→B at up to 10 µM for CCOC(=O)c1cnc(N2CC(NC(=O)NS(=O)(=O)c3ccccc3)C2)c(Cl)c1 , strictly under 0.5 ×10⁻⁶ cm/s or not?
-- reply false (0)

-- ask Hello, is Papp A→B at up to 10 µM of the following molecule strictly smaller than 0.5 ×10⁻⁶ cm/s? CCOC(=O)c1cnc(N2CCN(C(=O)NS(=O)(=O)c3ccc(F)cc3)CC2)c(Cl)c1
-- reply false (0)

###

# ASSAY_OVERVIEW: Stability of the compound in MeCN assessed as compound remaining at room temperature
# Type: physicochemical
QUANTITY_MEASURED: Stability

CCOC(=O)c1cnc(N2CCN(C(=O)NS(=O)(=O)c3ccc(Cl)cc3)CC2)c(Cl)c1 = Stable
CCOC(=O)c1cc(C#N)c(N2CCN(C(=O)NS(=O)(=O)c3ccc(Cl)s3)CC2)nc1C(F)(F)F = Stable
CCCOC(=O)c1cnc(N2CCN(C(=O)NS(=O)(=O)c3ccc(Cl)s3)CC2)c(Cl)c1 = Stable
CCOC(=O)c1cc(C#N)c(N2CCN(C(=O)NS(=O)(=O)c3ccc(Cl)s3)CC2C)nc1C (racemic) = Stable
CCOC(=O)c1cc(C#N)c(N2CC(NC(=O)NS(=O)(=O)c3ccccc3)C2)nc1C = Stable

Entry CCOC(=O)c1cc(C#N)c(N2CCCN(C(=O)NS(=O)(=O)c3ccc(Cl)s3)CC2)nc1C ; Stability = Stable

In plain terms, CCOC(=O)c1cc(C#N)c(N2CCN(C(=O)NS(=O)(=O)c3ccccc3Cl)CC2)nc1C(F)(F)F has a documented Stability of Stable

Stability reading for CCOC(=O)c1cc(C#N)c(N2CC3CN(C(=O)NS(=O)(=O)c4ccccc4)CC3C2)nc1C (centres undefined) : Stable

Value of measured Stability for the entry CCOC(=O)c1cc(C#N)c(N2CC(NC(=O)NS(=O)(=O)c3ccc(Cl)s3)C2)nc1C : Stable
